# DC50 listing for each entry below
# target: BTK (Homo sapiens, UniProt Q06187)
# Construct: endogenous in cells; host or cells: TMD8 cells
# Sequence (Q06187 whole entry): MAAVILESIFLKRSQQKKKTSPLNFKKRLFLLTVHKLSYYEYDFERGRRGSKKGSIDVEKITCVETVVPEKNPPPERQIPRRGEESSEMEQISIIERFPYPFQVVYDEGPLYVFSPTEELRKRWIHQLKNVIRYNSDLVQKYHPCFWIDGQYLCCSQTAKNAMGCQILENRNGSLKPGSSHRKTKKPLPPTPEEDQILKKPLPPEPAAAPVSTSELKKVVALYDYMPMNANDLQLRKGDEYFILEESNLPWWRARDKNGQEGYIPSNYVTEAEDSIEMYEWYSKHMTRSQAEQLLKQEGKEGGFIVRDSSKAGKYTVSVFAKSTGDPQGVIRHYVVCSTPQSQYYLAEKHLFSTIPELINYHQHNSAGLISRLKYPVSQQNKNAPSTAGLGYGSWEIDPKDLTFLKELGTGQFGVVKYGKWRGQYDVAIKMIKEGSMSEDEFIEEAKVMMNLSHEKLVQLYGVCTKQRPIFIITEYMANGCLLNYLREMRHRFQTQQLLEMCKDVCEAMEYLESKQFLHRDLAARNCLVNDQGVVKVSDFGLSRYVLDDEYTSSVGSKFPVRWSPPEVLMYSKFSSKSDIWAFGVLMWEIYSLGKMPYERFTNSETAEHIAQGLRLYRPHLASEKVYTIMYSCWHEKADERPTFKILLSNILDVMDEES
# assay overview: Cellular BTK HTRF assay (BTK degradation) in TMD8 cells
# Assay type: cell-based
# assay conditions: four hours incubation, Total-BTK HTRF relative to DMSO-treated cells

# example entries with known answers
Which DC50 reading was recorded for the compound CN1CCN([C@@H]2CCCN(c3cnc(C(N)=O)c(Nc4ccc(N5CC6(C5)CN(c5ccc7c(c5)C(=O)N(C5CCC(=O)NC5=O)C7=O)C6)cc4)n3)C2)C1=O (stereo partly drawn) ?
< 5 nM

Which DC50 reading was recorded for the compound CN1CCN([C@@H]2CCCN(c3cnc(C(N)=O)c(Nc4ccc(C5CCN(CC6CCN(c7ccc(CC8CCC(=O)NC8=O)cn7)CC6)CC5)cc4)n3)C2)C1=O (stereo partly drawn) ?
5 to 15 nM

// next item, DC50 requested
Which DC50 reading was recorded for the compound CN1CCN([C@@H]2CCCN(c3cnc(C(N)=O)c(Nc4ccc(N5CCN(C6CN(Cc7ccc8c(c7)C(=O)N(C7CCC(=O)NC7=O)C8=O)C6)CC5)cc4)n3)C2)C1=O (stereo partly drawn) ?
< 5 nM

* * *

# target: BTK (Homo sapiens)
# Construct: endogenous in cells; host or cells: TMD8 cells
# assay overview: Cellular BTK HTRF assay (BTK degradation) in TMD8 cells
# Type: cell-based
# assay conditions: four hours incubation, Total-BTK HTRF relative to DMSO-treated cells
# DC50 listing for each entry below

Which DC50 reading was recorded for the molecule NC(=O)c1ncc(N2CCC[C@@H](CO)C2)nc1Nc1ccc(C2CCN(C[C@@H]3CCN(c4ccc5c(c4)C(=O)N(C4CCC(=O)NC4=O)C5=O)C3)CC2)cc1 (some centres unmarked) ?
< 5 nM

Continuing:
Which DC50 reading was recorded for the molecule CN1CCN([C@@H]2CCCN(c3cnc(C(N)=O)c(Nc4ccc(C5(C)CCN(C(=O)CCOCCCc6ccc7c(c6)C(=O)N(C6CCC(=O)NC6=O)C7=O)CC5)cc4)n3)C2)C1=O (some centres unmarked) ?
5 to 15 nM

Which DC50 reading was recorded for the molecule CN1CCN([C@@H]2CCCN(c3cnc(C(N)=O)c(Nc4ccc(C5CN(CC6CN(c7ccc8c(c7)C(=O)N(C7CCC(=O)NC7=O)C8=O)C6)C5)cc4)n3)C2)C1=O (some centres unmarked) ?
< 5 nM

Which DC50 reading was recorded for the molecule CN1CCN([C@@H]2CCCN(c3cnc(C(N)=O)c(Nc4ccc(N5CCN(CCC6CN(c7ccc8c(c7)C(=O)N(C7CCC(=O)NC7=O)C8=O)C6)CC5)cc4)n3)C2)C1=O (some centres unmarked) ?
< 5 nM

Which DC50 reading was recorded for the molecule CN1CCN([C@@H]2CCCN(c3cnc(C(N)=O)c(Nc4ccc(C5CCN(C(=O)COc6cccc7c6C(=O)N(C6CCC(=O)NC6=O)C7=O)CC5)cc4)n3)C2)C1=O (some centres unmarked) ?
5 to 15 nM

Which DC50 reading was recorded for the molecule CN1CCN([C@@H]2CCCN(c3cnc(C(N)=O)c(Nc4ccc(N5CCN(C[C@@H]6CCCN(c7ccc8c(c7)C(=O)N(C7CCC(=O)NC7=O)C8=O)C6)CC5)cc4)n3)C2)C1=O (some centres unmarked) ?
< 5 nM

Which DC50 reading was recorded for the molecule NC(=O)c1ncc(N2CCC3(COC3)C2)nc1Nc1ccc(C2CCN(C[C@H]3CCN(c4ccc5c(c4)C(=O)N(C4CCC(=O)NC4=O)C5=O)C3)CC2)cc1 (some centres unmarked) ?
< 5 nM

Which DC50 reading was recorded for the molecule CN1CCN([C@H]2CCCN(c3cnc(C(N)=O)c(Nc4ccc(N5CCC6(CCCN(Cc7ccc8c(c7)C(=O)N(N7CCC(=O)NC7=O)C8=O)C6)CC5)cc4)n3)C2)C1=O ?
5 to 15 nM

Which DC50 reading was recorded for the molecule CN1CCN([C@@H]2CCCN(c3cnc(C(N)=O)c(Nc4ccc(N5CCC6CCN(c7cccc8c7C(=O)N(N7CCC(=O)NC7=O)C8=O)CC6C5)cc4)n3)C2)C1=O (some centres unmarked) ?
> 15 nM

Which DC50 reading was recorded for the molecule CN1CCN([C@@H]2CCCN(c3cnc(C(N)=O)c(Nc4cccc(NC(=O)CCCN5CCN(c6ccc7c(c6)C(=O)N(C6CCC(=O)NC6=O)C7=O)CC5)c4)n3)C2)C1=O (some centres unmarked) ?
> 15 nM

Which DC50 reading was recorded for the molecule NC(=O)c1ncc(N2CCCCC2)nc1Nc1ccc(C2CCN(CC3CCN(c4ccc5c(=O)n(C6CCC(=O)NC6=O)ccc5c4)CC3)CC2)cc1 (centres unmarked) ?
< 5 nM

* * *

# DC50 listing for each entry below
# target: BTK (Homo sapiens, UniProt Q06187)
# Construct: endogenous in cells; host or cells: TMD8 cells
# assay overview: Cellular BTK HTRF assay (BTK degradation) in TMD8 cells
# Format: cell-based
# assay conditions: four hours incubation, Total-BTK HTRF relative to DMSO-treated cells

# example entries with known answers
Which DC50 reading was recorded for the compound CN1CCN([C@H]2CCCN(c3cnc(C(N)=O)c(Nc4ccc(N5CC[C@@H]6CCN(c7ccc8c(c7)C(=O)N(N7CCC(=O)NC7=O)C8=O)C[C@H]6C5)cc4)n3)C2)C1=O [Compound 107] ?
> 15 nM

Which DC50 reading was recorded for the compound CN1CCN([C@H]2CCCN(c3cnc(C(N)=O)c(Nc4ccc(N5CC6CN(c7ccc8c(c7)C(=O)N(C7CCC(=O)NC7=O)C8=O)CC6C5)cc4)n3)C2)C1=O (stereo partly drawn) [Compound 79] ?
> 15 nM

Which DC50 reading was recorded for the compound CN1CCN([C@@H]2CCCN(c3cnc(C(N)=O)c(Nc4ccc(C5(C)CCN(CCCCc6cccc7c6CN(C6CCC(=O)NC6=O)C7=O)CC5)cc4)n3)C2)C1=O (stereo partly drawn) [Compound 21] ?
5 to 15 nM

Which DC50 reading was recorded for the compound NC(=O)c1ncc(N2CCC[C@H](N3CCOC3=O)C2)nc1Nc1ccc(N2CCC(C3CN(c4ccc5c(c4)C(=O)N(C4CCC(=O)NC4=O)C5=O)C3)CC2)cc1 (stereo partly drawn) [Compound 70] ?
< 5 nM

Which DC50 reading was recorded for the compound CN1CCN([C@@H]2CCCN(c3cnc(C(N)=O)c(Nc4ccc(OCCCNC(=O)CCCc5cccc6c5CN(C5CCC(=O)NC5=O)C6=O)cc4)n3)C2)C1=O (stereo partly drawn) [Compound 6] ?
> 15 nM

Continuing:
Which DC50 reading was recorded for the compound CN1CCN([C@@H]2CCCN(c3cnc(C(N)=O)c(Nc4ccc(N5CC[C@@H]6CCN(Cc7ccc8c(c7)C(=O)N(N7CCC(=O)NC7=O)C8=O)C[C@@H]6C5)cc4)n3)C2)C1=O [Compound 95] ?
5 to 15 nM

Which DC50 reading was recorded for the compound CN1CCN([C@H]2CCCN(c3cnc(C(N)=O)c(Nc4ccc(C5CCN(CC6CN(c7ccc(-c8nn(C9CCC(=O)NC9=O)c(=O)n8C)cc7)C6)CC5)cc4)n3)C2)C1=O (stereo partly drawn) [Compound 136] ?
< 5 nM

Which DC50 reading was recorded for the compound CN1CCN([C@H]2CCCN(c3cnc(C(N)=O)c(Nc4cnn(C5CCN(CCCc6cccc7c6CN(C6CCC(=O)NC6=O)C7=O)CC5)c4)n3)C2)C1=O (stereo partly drawn) [Compound 84] ?
> 15 nM

Which DC50 reading was recorded for the compound CN1CCN([C@@H]2CCCN(c3cnc(C(N)=O)c(Nc4ccc(C5CCN(CC6CCN(c7ccc(OC8CCC(=O)NC8=O)cn7)CC6)CC5)cc4)n3)C2)C1=O (stereo partly drawn) [Compound 165] ?
5 to 15 nM

Which DC50 reading was recorded for the compound CC1CCN([C@H]2CCCN(c3cnc(C(N)=O)c(Nc4ccc(C5CCN(C[C@@H]6CCN(c7ccc(-c8nn(C9CCC(=O)NC9=O)c(=O)n8C)cc7)C6)CC5)cc4)n3)C2)C1=O (stereo partly drawn) [Compound 142] ?
< 5 nM

Which DC50 reading was recorded for the compound NC(=O)c1ncc(N2CCCCC2)nc1Nc1ccc(N2CCC3(CCN(Cc4ccc5c(c4)C(=O)N(C4CCC(=O)NC4=O)C5=O)CC3)CC2)cc1 (stereo not drawn) [Compound 123] ?
5 to 15 nM

Which DC50 reading was recorded for the compound CN1CCN([C@@H]2CCCN(c3cnc(C(N)=O)c(Nc4ccc(C5(C)CCN(C(=O)CCCCc6cccc7c6CN(C6CCC(=O)NC6=O)C7=O)CC5)cc4)n3)C2)C1=O (stereo partly drawn) [Compound 26] ?
5 to 15 nM

Which DC50 reading was recorded for the compound NC(=O)c1ncc(N2CCC[C@@H](CO)C2)nc1Nc1ccc(C2CCN(CC3CCN(c4ccc(OC5CCC(=O)NC5=O)cn4)CC3)CC2)cc1 (stereo partly drawn) [Compound 171] ?
< 5 nM

Which DC50 reading was recorded for the compound CN1CCN([C@@H]2CCCN(c3cnc(C(N)=O)c(Nc4ccc(N5CCN(C(=O)CN6CCN(CCc7cccc8c7CN(C7CCC(=O)NC7=O)C8=O)CC6)CC5)cc4)n3)C2)C1=O (stereo partly drawn) [Compound 12] ?
5 to 15 nM

Which DC50 reading was recorded for the compound CN1CCN([C@H]2CCCN(c3cnc(C(N)=O)c(Nc4ccc(N5CCN(CC#Cc6cccc7c6CN(C6CCC(=O)NC6=O)C7=O)CC5)cc4)n3)C2)C1=O (stereo partly drawn) [Compound 99] ?
< 5 nM

Which DC50 reading was recorded for the compound CN1CCN([C@@H]2CCCN(c3cnc(C(N)=O)c(Nc4ccc(C5CCN(CC6CCN(c7ccc8c(c7)C(=O)N(C7CCC(=O)NC7=O)C8=O)CC6)CC5)cc4)n3)C2)C1=O (stereo partly drawn) [Compound 51] ?
< 5 nM
